studyTarget: T1, HLA-A2 / homologous peptide PRKD2 complex on T2 cells (human)
T1 construct: whole, on cells; also called T2 cells supplemented with homologous peptide PRKD2
experimentalDetails: flow cytometry on peptide-pulsed T2 cells, scFv 100 nM;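 also: scFv binding read as gMFI and normalized to the level of HLA/peptide complex displayed on T2 cells, with homologous 9-mer peptides used to probe specificity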
quantityMeasured: standardized gMFI
One number for each entry.

Value of measured standardized gMFI for the entry NYA-2143 (scFv) scFv: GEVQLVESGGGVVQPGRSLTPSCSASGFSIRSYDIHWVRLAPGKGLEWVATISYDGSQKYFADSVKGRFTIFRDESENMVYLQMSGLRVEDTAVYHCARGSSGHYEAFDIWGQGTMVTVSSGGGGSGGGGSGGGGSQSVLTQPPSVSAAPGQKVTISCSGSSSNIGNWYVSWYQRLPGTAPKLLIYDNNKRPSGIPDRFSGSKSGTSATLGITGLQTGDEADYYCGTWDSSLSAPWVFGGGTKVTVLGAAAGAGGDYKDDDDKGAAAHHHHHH : 0.32
